FYI, the data here is from paper PMC8540642.

# IC50 per entry
# System: OVCAR-3 cells
# protocol.notes: MTT cell viability, dose-response curves 24 h
# Assay type: cell-based
# condition.context: Homo sapiens, OVCAR-3; MTT, 24 h; read-out: IC50 (half-maximal inhibitory concentration), OVCAR-3
Give the number; µg/mL is assumed, so skip it.

// worked examples, IC50 included
molecule | result.units | IC50
O=c1c(O)c(-c2ccc(O)c(O)c2)oc2cc(O)ccc12 [Compound 16, fisetin] | µg/mL | 200
O=c1c(O)c(-c2cc(O)c(O)c(O)c2)oc2cc(O)cc(O)c12 [Compound 5, myricetin] | µg/mL | 94
O=c1c(O)c(-c2ccc(O)c(O)c2)oc2cc(O)cc(O)c12 [Compound 9, quercetin] | µg/mL | 200
CC(=O)O[C@H]1C(=O)[C@@]2(C)[C@H]([C@H](OC(=O)c3ccccc3)[C@]3(O)C[C@H](OC(=O)[C@H](O)[C@@H](NC(=O)c4ccccc4)c4ccccc4)C(C)=C1C3(C)C)[C@]1(OC(C)=O)CO[C@@H]1C[C@@H]2O [Paclitaxel, paclitaxel, reference compound] | µg/mL | 8

Record O=C(O)c1cc(O)c(O)c(O)c1 [Gallic acid, gallic acid] : what is its IC50 with OVCAR-3 cells?
43
